test: drug combination growth inhibition, ovarian cancer – cell-based, oncology-focused library, rucaparib conditional, profiling panel (AID 1508598); details: patient-derived ovarian cancer cells, CellTiter-Glo viability, 144 h; at 0.000305 µM; OCI-P5x cells; without rucaparib; stronger effect = lower value
Below: a set of entries, each annotated with reported viability.
The figure you give is taken to be in %; do not add the unit.

[[record]]
compound = "O=C(O)CCC1CCC(c2cc(F)ccc2F)(S(=O)(=O)c2ccc(Cl)cc2)CC1 (stereo not given)"
unit_annotation = "%"
numeric_result = 108


Consider CN(C)C/C=C/C(=O)Nc1cc2c(Nc3ccc(F)c(Cl)c3)ncnc2cc1O[C@H]1CCOC1 . Its measured viability is 107

Consider CS(=O)(=O)c1ccc(C(=O)Nc2ccc(Cl)c(-c3ccccn3)c2)c(Cl)c1 . Its measured viability is 106

Consider Cn1c(=O)c(F)c(Nc2ccc(I)cc2F)c2c(=O)n(C[C@@H](O)CO)cnc21 . Its measured viability is 106

Consider COc1cc2nccc(Oc3ccc(NC(=O)Nc4cc(C)on4)c(Cl)c3)c2cc1OC . Its measured viability is 96.5

Consider COc1ncc(-c2ccc3nccc(-c4ccnnc4)c3c2)cc1NS(=O)(=O)c1ccc(F)cc1F . Its measured viability is 84.8

Consider CCC[C@H](Nc1nc(-c2ccc(NC(=O)NCC)c(OC)c2)ncc1C)c1cccnc1 . Its measured viability is 99.6

Consider NC(=O)c1ccc(I)c([N+](=O)[O-])c1 . Its measured viability is 94.7

Consider Cc1ccc2c(=O)c3cccc(CC(=O)O)c3oc2c1C . Its measured viability is 97.7

Consider CCCS(=O)(=O)Nc1ccc(F)c(C(=O)c2c[nH]c3ncc(-c4ccc(Cl)cc4)cc23)c1F . Its measured viability is 93

----------
Below: a set of entries, each annotated with reported z-score.
test: MELAS cybrid and Rieske KO viability enhancers – cell-based, MELAS cybrids, Rieske KO mouse fibroblasts, CellTiter-Glo, primary screen (AID 1508586); settings: MELAS cybrid survival, low glucose, CellTiter-Glo 48 h; stronger effect = higher value;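 further: z relative to plate mean and SD of compound and empty wells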
Just the number, please, no unit attached.

Past entries and their recorded results:
[[record]]
compound = "Nc1ccc(-c2ccc3ncc4ccc(=O)n(-c5cccc(C(F)(F)F)c5)c4c3c2)cn1"
numeric_result = 3.27

[[record]]
compound = "Nc1nc2[nH]cc(CCc3ccc(C(=O)N[C@@H](CCC(=O)O)C(=O)O)cc3)c2c(=O)[nH]1"
numeric_result = -0.725

[[record]]
compound = "O=C(c1ccc(OCCCc2cnc[nH]2)cc1)C1CC1"
numeric_result = -0.324

[[record]]
compound = "Cc1cccc(-c2[nH]c(C(C)(C)C)nc2-c2ccc3c(c2)OCO3)n1"
numeric_result = -0.251

[[record]]
compound = "Cc1cnc(Nc2ccc(N3CCN(C)CC3)cc2)nc1Nc1cccc(S(=O)(=O)NC(C)(C)C)c1"
numeric_result = 1.59

[[record]]
compound = "Cc1ccc(C(=O)Nc2cccc(C(F)(F)F)c2)cc1Nc1nc(-c2cccnc2)nc2c1cnn2C"
numeric_result = -0.539

[[record]]
compound = "C#Cc1cccc(Nc2ncnc3cc(OCCOC)c(OCCO)cc23)c1"
numeric_result = -0.467

[[record]]
compound = "COc1cc(OC)c2c(=O)[nH]c(-c3cc(C)c(OCCO)c(C)c3)nc2c1"
numeric_result = -0.573

[[record]]
compound = "COc1cc2c(Oc3ccc4[nH]c(C)cc4c3F)ncnc2cc1OCCCN1CCCC1"
numeric_result = -0.469


# ---- query compound ----
Consider O=C(NOCC(O)CO)c1cc(Br)c(F)c(F)c1Nc1ccc(I)cc1F (stereo not given) . Its measured z-score is -0.561
